Experiment: Cytotoxicity against human colon cancer cells after 48 hrs by sulforhodamine B assay
Assay type: functional
Conditions: Cancer cell lines
measure: log10(GI50) (log10 of the value in nM)
Record value = log10 of GI50 given in nM.

Recorded log10(GI50), per entry:
smiles-structure: O=C1CC(=O)N(C(=O)c2nn(-c3ccc(Cl)cc3)cc2O)N1
log10(GI50): 3.18
--
smiles-structure: Cc1c2c(nn1C(=O)c1nn(-c3ccc(Cl)cc3)cc1O)-c1ccccc1CC2
log10(GI50): 2.34
--
smiles-structure: N#Cc1cnn(C(=O)c2nn(-c3ccc(Cl)cc3)cc2O)c1N
log10(GI50): 2.79
--
smiles-structure: CC1=NN(C(=O)c2nn(-c3ccc(Cl)cc3)cc2O)C(=O)C1
log10(GI50): 3.49
--
smiles-structure: O=C(c1nn(-c2ccc(Cl)cc2)cc1O)n1nc(-c2ccco2)cc1C(F)(F)F
log10(GI50): 3.66

Now, please, on to the next compound.
**Q:** # lookup: log10(GI50) of Cc1cc(C)n(C(=O)c2nn(-c3ccc(Cl)cc3)cc2O)n1
**A:** 3.91
